System: prostate cancer cell lines (e.g. DU145/TXR)
Assay protocol: Cell based assay, cell viability (CellTiter-Glo), prostate cancer cell lines
Assay setup: Homo sapiens, CWR22 cells, 72 hours treatment, final concentration 0 to 2 μM, read-out: IC50, prostate cancer cell line CWR22

{"columns": ["Compound", "IC50"],
 "data": [
  ["CC(=O)c1c([S+](C)[O-])n(S(=O)(=O)c2ccc(C(C)(C)C)cc2)c2c(Br)ccc(Cl)c2c1=O (centres unmarked)", "> 2 µM"],
  ["CC(=O)c1c([S+]([O-])Cc2ccc(F)cc2F)[nH]c2c(Br)ccc(Cl)c2c1=O (centres unmarked)", "1.77 µM"],
  ["CC(=O)c1c([S+]([O-])Cc2ccc(-n3cccn3)nc2)[nH]c2c(Br)ccc(Cl)c2c1=O (centres unmarked)", "1.24 µM"],
  ["CC(=O)c1c(SCc2ccccc2)n(C(=O)c2ccc(Br)cc2)c2c(Br)ccc(Cl)c2c1=O", "> 2 µM"],
  ["CC(=O)c1c([S+](C)[O-])n(C(C)=O)c2c(Br)ccc(Cl)c2c1=O (centres unmarked)", "> 2 µM"],
  ["CC(=O)c1c([S+]([O-])Cc2cc(Cl)ccc2Cl)[nH]c2c(Br)ccc(Cl)c2c1=O (centres unmarked)", "1.58 µM"],
  ["COCSc1[nH]c2c(Br)ccc(Cl)c2c(=O)c1C(C)=O", "> 2 µM"],
  ["COCCNc1ccc(C[S+]([O-])c2[nH]c3c(Br)ccc(Cl)c3c(=O)c2C(C)=O)cn1 (centres unmarked)", "> 2 µM"]
]}
